Origin of the recorded values: PubChem BioAssay (NCI)

Tested on: MDA-MB-468 breast
Test: NCI-60 one-dose screen, 48 h (100 = growth as untreated, 0 = no growth, -100 = all killed)
Conditions: 10 µM unless noted
Experimental: Growth inhibition of the MDA-MB-468 human Breast tumor cell line is measured as a screen for anti-cancer activity. Cells are grown in 96 well plates and exposed to the test compound for 48 hours. Compounds are tested at a single concentration, which is 10^-5 M for most compounds. The reported endpoint is percent growth (GI% or GIPRCNT), where numbers from 0 - 100% represent growth inhibition, and numbers from -100% - 0 represent cell death. […]
This is part of a sample that, as a whole, favours compounds with a hit. Of some 83,000 tested, about 20% had one in any assay. The source made the active and inactive calls. Rule for the calls: active = growth percent below 10; inactive = the rest.
Please provide measured growth for the entries that follow.

growth recorded for this compound, CNC(=O)c1cc(Oc2ccc3nc(NC(=O)c4ccc(N5CCOCC5)c(C(F)(F)F)c4)sc3c2)ccn1 , is 80.5% (inactive)

Per the record, CCN(CC)C(=O)c1cccnc1 has growth of 109% (inactive)

The reported value for COc1cc(Cn2cc3c(c2)-c2onc(CN4CCCC4)c2CC3)cc(OC)c1OC in terms of growth is 82.7% (inactive)

Reported growth ( COc1ccc(Cc2cnc(N)nc2N)cc1OC ) = 104% (inactive)

###

Tested on: MDA-MB-468 breast
Experiment: NCI-60 one-dose screen, 48 h (100 = growth as untreated, 0 = no growth, -100 = all killed)
Conditions: 10 µM unless noted
About 83,000 compounds went through this panel and 20% of them were active in at least one assay; those are over-represented in the sample as a whole.
Please respond with reported growth for every item in the list.
Number only, in %; omit the unit.

Kindly note the recorded growth for COc1ccc(Nc2ncccc2NC(=O)c2cn(Cc3cccc(Oc4ccccc4)c3)nn2)cc1OC , which is 55.6

// growth value for COc1ccc(-c2nnc(/N=C3/C(=O)Nc4ccc(Br)cc43)o2)cc1 : 90.7

Short answer for CC(C)[N+](C)(CCOC(COc1ccccc1)COc1ccccc1)C(C)C : growth was 12.8

Short answer for COc1cc(-c2nn3c(/C=C4/C(=O)Nc5ccccc54)c(-c4ccc(C)cc4)nc3s2)cc(OC)c1OC : growth was 41

Lab note: COc1ccc(C[n+]2c3ccccc3n3c4ccc(N)cc4ccc32)c(OC)c1OC gave growth of -22.5

Noted for COc1ccc(-c2cn3c(C(=O)Nc4ccccc4Cl)c(-c4ccccc4)c4c3n2CCCC4)cc1 : its growth reads 84.1

COc1ccc(C(=O)OC2C(OC3C(O)COC(O[C@H]4C[C@H]5[C@@H]6CC=C7C[C@@H](O)CC[C@]7(C)[C@H]6CC[C@]5(C)[C@H]4[C@H](C)C(=O)CCC(C)C)C3OC(C)=O)OCC(O)C2O)cc1 (stereo partly drawn) yielded growth of -34.1

For record COC1=CC(=O)C[C@@H](C)[C@]12Oc1c(Cl)c(OC)cc(OC)c1C2=O the listed growth is 76.8

###

Field: growth. Provide a value for each of the molecules that follow.
Test system: MDA-MB-468 breast
Assay: NCI-60 one-dose screen, 48 h (100 = growth as untreated, 0 = no growth, -100 = all killed)
Settings: 10 µM unless noted
About 83,000 compounds went through this panel and 20% of them were active in at least one assay; those are over-represented in the sample as a whole.
Give your result in % as a bare value.

Per the record, CN(C)c1ccc(C2(Cl)c3ccccc3N(C)c3ccccc32)cc1 has growth of 50.8

Record COCCOCCCl , field growth: 102

Recorded result, Cl.Fc1c[c-]c(-c2ccccn2)c(F)c1.[Pt].c1ccc([PH+](C[PH+](c2ccccc2)c2ccccc2)c2ccccc2)cc1 , growth: -75.7

###

Kindly state growth for each of the entries shown.
Tested on: MDA-MB-468 breast
Assay: NCI-60 one-dose screen, 48 h (100 = growth as untreated, 0 = no growth, -100 = all killed)
Settings: 10 µM unless noted
Compounds without any hit were thinned out: in the full panel of roughly 83,000, 20% have a hit.
Return type: number; implicit unit %.

So, CCOC(=O)C1=C(C)NC(C)=C(C(=O)OCC)C1(C)C ? Its growth was 98.8

// growth lookup, compound = O=[N+]([O-])c1ccc(NS(=O)(=O)c2cc(Cl)ccc2Cl)c2ccccc12 , result: 23.6

Consider COc1ccc(Nc2nc(NCc3ccccc3)c3ccccc3n2)cc1 . Its measured growth is 40.2

What the record says about O=C(CBr)CN1C(=O)c2ccccc2C1=O : growth is 103

Just so you know, measured growth for CCO/C=N/S(=O)(=O)c1cc2c(cc1Cl)NC=NS2(=O)=O came out at 98.3

For this compound ( CCCCN(CC)CC(CC)Nc1cc(OC)cc2cccnc12 (stereo unspecified) ), measured growth is 119

###

Tested on: MDA-MB-468 breast
Experiment: NCI-60 one-dose screen, 48 h
Conditions: 10 µM unless noted
This is part of a sample that, as a whole, favours compounds with a hit. Of some 83,000 tested, about 20% had one in any assay. The source made the active and inactive calls. Rule for the calls: active = growth percent below 10; inactive = the rest.
Thanks in advance; please answer with one of these: True for active, False for inactive

Hi, sorry to bother you, what did the test record for COc1ccc(/C(C#N)=C/c2cccc(OC)c2OC)cc1 ?
True

Test call for this compound, please: O=C1[C@H]2Cc3c([nH]c4ccccc34)[C@@H](c3ccc(Cl)cc3)N2C(=O)CN1C1CCN(Cc2c(Cl)cccc2Cl)CC1
False

Which result was noted for this compound in the test: O=C1N[C@@H]2[C@@H](O)[C@@H](O)[C@H](O)C[C@H]2c2cc3c(c(O)c21)OCCO3
True

Please share the test call associated with Nc1n[nH]c2cccc(C#Cc3cccc(C(=O)Nc4ccc(CN5CCOCC5)c(C(F)(F)F)c4)c3)c12 .
False

Which result was noted for this compound in the test: O=C(Nc1ccc(-n2cc(-c3ccncc3)c(-c3ccc(Cl)c(O)c3)n2)cc1)c1cc(Cl)cc(Cl)c1
False

Each compound tested received a call. Report the one for O=C(Nc1ccc(Nc2ncnc3sc4c(c23)CCOC4)cc1)Nc1ccc(Cl)c(C(F)(F)F)c1 .
False

Recorded call for COc1cc(-c2nn(-c3cccc(NC(=O)CCN4CCN(c5ccccc5)CC4)c3)cc2-c2ccncc2)ccc1Cl ?
False

// param item: C1CN(SSN2CCOCC2)CCO1 ; yields the recorded call
True

In this assay, the call recorded for CCN1C(=O)N(CC)C2C1NN=c1s/c(=C3\C(=O)N(C(C)C)c4ccccc43)c(=O)n12 (stereo unspecified) was what?
False

Could you please tell me the result logged for NC(N)=NC(N)=NCCCc1ccccc1 in this assay?
True

What call does the record list for CCCCn1c(=O)[nH]c(N)c(C(c2ccc(Cl)cc2)c2c(N)[nH]c(=O)n(CCCC)c2=O)c1=O ?
False

// return assay outcome for O=C(NCCCCCCNC(=O)c1c2c(nc3ccccc13)-c1cccnc1SC2)c1c2c(nc3ccccc13)-c1cccnc1SC2
False

Outcome? COc1ccc(C(=O)/C=C/c2sc(Cl)nc2Cl)cc1
True

Query: recorded result category for CCC(CC)NCC(C)(C)O in this test
False

# lookup: test call for O=S(=O)(Nc1cccc2cc(OS(=O)(=O)c3ccccc3)ccc12)c1ccccc1
False

Any idea what this test logged for C/C(=C\C(=N\N=C(N)N)c1ccc(Cl)cc1)c1ccc(Cl)cc1 ?
True

Assay outcome for Clc1cccc(-c2cc(-c3ccc4c(c3)OCCO4)[nH]n2)c1 : what was it?
True

Call for entry COc1ccc([C@@H]2c3[nH]c4ccccc4c3C[C@H]3C(=O)N(C4CCN(CC5CCCCC5)CC4)CC(=O)N23)c(OC)c1 :
False

What outcome does the record of this test show for COc1ccc(-c2cnoc2-c2cc(OC)c3c(c2)OCCO3)cc1 ?
False

Call for entry CCN(CC)CCNCC(O)Cc1ccc(OC)cc1 (stereo unspecified) :
False

What outcome does the record of this test show for N/C(=N\N=C\c1cc2ccccc2s1)N/N=C/c1cc2ccccc2s1 ?
False

# fetch the recorded call for CCCCC(CC)COC(=O)C[N+](C)(C)CCOC(c1ccccc1)c1ccccc1 (stereo unspecified) here
True

Short answer needed: outcome of this test for c1ccc2c(-c3c4ccsc4cc4[nH]c5ccccc5c34)c[nH]c2c1 ?
False

// param item: C=C(C)[C@@H]1C/C=C(/C=O)CC[C@@H]2O[C@@]2(C)CC/C=C(\C)CC1 ; yields the recorded call
False

Recorded test call requested for O=C(N/N=C\c1ccc(F)cc1)c1ccc2nc(-c3ccc(Br)cc3)[nH]c2c1
False

Outcome? COc1ccc(S(=O)(=O)Oc2ccc(-c3sc4cc(OS(=O)(=O)c5ccc(OC)cc5)ccc4c3C(=O)c3ccc(OCCN4CCCCC4)cc3)cc2)cc1
False

Called result for O=[N+]([O-])c1ccc(S(=O)(=O)N2CCN(c3ccnc4cc(Cl)ccc34)CC2)c([N+](=O)[O-])c1
False

I would be grateful if you could indicate the recorded call for O=c1c2sc3ncc(Br)cc3c2ncn1-c1cccc(Cl)c1 .
False

State the result this test recorded for O=S(=O)(NCCNc1nccc(-c2c(-c3cccc(O)c3)nc3occn23)n1)c1ccc(Br)cc1 .
False

Assay outcome for COc1ccc(-c2cc(-c3nnc(SC/C(=N\O)c4ccccc4)n3-c3ccccc3)c3ccccc3n2)cc1 : what was it?
False

For COc1cc2oc(-c3cccc(C(=O)N[C@@H](CC(C)C)C(=O)OC(C)(C)C)c3)cc(=O)c2c(OC)c1OC , what call appears in the results of this test?
False
